# assay_overview: Binding affinity to Mycobacterium tuberculosis PanD assessed as dissociation constant by isothermal titration calorimetry
Exercise: state measured pKd for each of the molecules provided.
Note: pKd values are expressed as the negative base-10 logarithm of concentration in M.

## Input Name the reported pKd value associated with the molecule CCCNc1nccnc1C(=O)O
## Output 5.15

## Input Name the reported pKd value associated with the molecule Nc1nccnc1C(=O)O
## Output 4.40

## Input Name the reported pKd value associated with the molecule Nc1cnc(C(=O)O)cn1
## Output 4.43

## Input Name the reported pKd value associated with the molecule O=C(O)c1nccnc1Nc1ccccc1
## Output 4.33

====

# Test system: Mycobacterium tuberculosis
# assay_overview: Binding affinity to Mycobacterium tuberculosis PanD assessed as change in entropy by isothermal titration calorimetry
test_readout: TdeltaS (kcal/mol)
Express your answer in kcal/mol, writing the number without its unit.

## Input Name the reported TdeltaS value associated with the molecule O=C(O)c1cnccn1
## Output 3

## Input Name the reported TdeltaS value associated with the molecule O=C(O)c1nccnc1Nc1ccccc1
## Output -2.5

## Input Name the reported TdeltaS value associated with the molecule Nc1cnc(C(=O)O)cn1
## Output 0.6

## Input Name the reported TdeltaS value associated with the molecule CCCNc1nccnc1C(=O)O
## Output -5.7

## Input Name the reported TdeltaS value associated with the molecule Nc1nccnc1C(=O)O
## Output -0.7

====

# assay_overview: Cytotoxicity against African green monkey Vero cells assessed as cell viability at 1.5 mM incubated for 24 hrs by XTT assay
# Assay type: toxicity, cell-based
# test_conditions: chlorocebus sabaeus, read-out: Activity
test_readout: viability at 24 h, 1500 µM (%)
Express your answer in %, writing the number without its unit.

## Input Name the reported viability at 24 h, 1500 µM value associated with the molecule CC(C)Nc1nccnc1C(=O)O
## Output 50

## Input Name the reported viability at 24 h, 1500 µM value associated with the molecule Nc1nccnc1C(=O)O
## Output 50

## Input Name the reported viability at 24 h, 1500 µM value associated with the molecule O=C(O)c1nccnc1NCc1ccccc1
## Output 50

## Input Name the reported viability at 24 h, 1500 µM value associated with the molecule CCCNc1nccnc1C(=O)O
## Output 50

## Input Name the reported viability at 24 h, 1500 µM value associated with the molecule Nc1cnc(C(=O)O)cn1
## Output 50
